- Tested System: serotonin 2 receptor (Rattus norvegicus, UniProt P14842)
- Sequence (P14842 whole entry): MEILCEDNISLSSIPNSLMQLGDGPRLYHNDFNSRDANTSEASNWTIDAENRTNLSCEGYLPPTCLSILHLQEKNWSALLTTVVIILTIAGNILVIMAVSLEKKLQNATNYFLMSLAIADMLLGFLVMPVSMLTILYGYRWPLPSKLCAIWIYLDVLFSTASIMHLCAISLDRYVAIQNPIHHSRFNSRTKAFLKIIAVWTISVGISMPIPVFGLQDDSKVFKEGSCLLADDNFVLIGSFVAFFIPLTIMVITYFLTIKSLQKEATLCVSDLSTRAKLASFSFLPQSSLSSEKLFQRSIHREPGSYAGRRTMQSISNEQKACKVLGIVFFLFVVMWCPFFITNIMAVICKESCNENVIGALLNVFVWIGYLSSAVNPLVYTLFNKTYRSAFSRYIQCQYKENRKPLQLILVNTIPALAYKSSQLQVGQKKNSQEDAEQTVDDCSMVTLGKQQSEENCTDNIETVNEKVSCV
- Test Summary: Binding test on [3H] ketanserin (serotonin 2 receptor)
- Condition Details: [3H] ketanserin 0.3 nM, receptor fraction of rat cerebral cortex; read-out: 5HT2
Structures can show the parent of a compound that is named as a salt.
Attribute Measured: Ki

Ask: So what does the record say about Ki for Fc1ccc(CCN2CCC(N3CCc4ccc(CC5CCNCC5)cc43)CC2)cc1 ?
Reply: 18.4 nM

Ask: Consider next the compound CCC(=O)NCc1ccc2ccn(C3CCN(CCc4ccccc4F)CC3)c2c1 in the same way.
Reply: 1.56 nM

Ask: And for O=C(Cc1ccc2ccn(C3CCN(CCc4ccc(F)cc4)CC3)c2c1)NCCF ?
Reply: 2.29 nM

Ask: Lookup CC(=O)NC(C)c1ccc2c(c1)N(C1CCN(CCc3ccc(F)cc3)CC1)CC2 (centres unmarked)
Reply: 1.22 nM

Ask: Also O=C(Cc1ccc2ccn(C3CCN(CCc4ccc(F)cc4)CC3)c2c1)NCCN1CCOCC1 [Example 313, Oxalate] , if possible.
Reply: 1.58 nM

Ask: Now give it for CN1CCC(N2CCc3ccc(NS(=O)(=O)c4ccc(F)cc4)cc32)CC1 too.
Reply: > 200 nM

Ask: Lookup COc1ccc(C(O)c2ccc3ccn(C4CCN(CCc5ccc(F)cc5)CC4)c3c2)cn1 (centres unmarked) [Example 318, Oxalate]
Reply: 8.3 nM

Ask: Let us now turn to COc1ncc(CCN2CCC(N3CCc4ccccc43)CC2)s1
Reply: 4.8 nM
